Below: a set of entries, each annotated with reported Fold change.
Biological target: T1, human LAP-TGFB1 Fc fusion (human)
T1 construct: also called human LAP-TGFβ1-Fc; human LAP-TGFβ-Fc isoform 1
T1 sequence (chain, as listed by the source limits assumed): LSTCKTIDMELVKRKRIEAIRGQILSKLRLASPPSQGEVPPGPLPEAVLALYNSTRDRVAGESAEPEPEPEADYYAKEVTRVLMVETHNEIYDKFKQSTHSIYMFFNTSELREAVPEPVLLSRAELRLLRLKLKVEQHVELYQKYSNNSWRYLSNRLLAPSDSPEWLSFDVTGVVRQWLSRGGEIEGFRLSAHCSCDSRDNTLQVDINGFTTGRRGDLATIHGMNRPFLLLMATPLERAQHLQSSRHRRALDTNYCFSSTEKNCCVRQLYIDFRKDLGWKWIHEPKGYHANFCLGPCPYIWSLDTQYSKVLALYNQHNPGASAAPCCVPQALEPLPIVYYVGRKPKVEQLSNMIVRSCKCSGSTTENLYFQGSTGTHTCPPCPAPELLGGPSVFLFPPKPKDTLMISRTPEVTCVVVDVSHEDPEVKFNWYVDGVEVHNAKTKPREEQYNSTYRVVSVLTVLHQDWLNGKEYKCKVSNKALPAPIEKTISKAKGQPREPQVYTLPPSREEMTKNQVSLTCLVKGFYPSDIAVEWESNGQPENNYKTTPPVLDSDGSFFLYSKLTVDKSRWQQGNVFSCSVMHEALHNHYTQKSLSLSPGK
Assay: BLI off-rate screen
Answer in fold, number only, no unit symbol.

Here's what some known entries look like.
VL R53Y (50BIT) (Fab, V domains shown) VH: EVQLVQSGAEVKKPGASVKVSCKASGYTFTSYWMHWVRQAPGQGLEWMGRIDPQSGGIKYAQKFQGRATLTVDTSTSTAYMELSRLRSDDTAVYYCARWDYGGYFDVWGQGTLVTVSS VL: DIQMTQSPSSLSASVGDRVTITCRASQDITNYLNWYQQKPGKAVKLLIYYTSYLHSGVPSRFSGSGSGTDYTLTISSLQPEDFATYFCQQGDTLPWTFGQGTKLEIKR; 1.6
VH P52aY (78BIT) (Fab, V domains shown) VH: EVQLVQSGAEVKKPGASVKVSCKASGYTFTSYWMHWVRQAPGQGLEWMGRIDYQSGGIKYAQKFQGRATLTVDTSTSTAYMELSRLRSDDTAVYYCARWDYGGYFDVWGQGTLVTVSS VL: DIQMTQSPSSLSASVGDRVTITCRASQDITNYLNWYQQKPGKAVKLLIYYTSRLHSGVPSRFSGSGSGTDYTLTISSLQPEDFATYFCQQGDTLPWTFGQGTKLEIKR; 0.9

**Query** Give the measured Fold change for VL T30Y (44BIT) (Fab, V domains shown) VH: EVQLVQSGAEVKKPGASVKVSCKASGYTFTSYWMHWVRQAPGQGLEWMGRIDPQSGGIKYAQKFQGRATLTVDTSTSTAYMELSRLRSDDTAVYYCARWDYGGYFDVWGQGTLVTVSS VL: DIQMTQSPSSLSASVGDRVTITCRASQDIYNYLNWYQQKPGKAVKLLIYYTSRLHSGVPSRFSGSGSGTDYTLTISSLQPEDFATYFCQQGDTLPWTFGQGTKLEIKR
**Result** 2.6
